The origin of these recorded values is ChEMBL document CHEMBL1201862.

# System: MDA-MB-435
# Run description: NCI tumour cell line growth inhibition, 48 h
Active and inactive are the calls of the source. Rule as the data show it: active = GI50 up to about 1.1 µM and inactive = higher.
Assay readout: GI50

// worked examples, GI50 included
Which GI50 reading was recorded for the compound "COc1cc2cccc(N)c2cc1OC" ?
> 100 µM (inactive)

Consider the compound shown here: "C=C(C)CNC(=S)N(N)c1ccc2ccccc2c1" What is its recorded GI50?
72.3 µM (inactive)

Fill in: GI50 of "COc1ccccc1C(=O)N(C)c1ccc(Cl)c(C(=O)OC(C)C)c1" is ___
29.4 µM (inactive)

Reported GI50 for Cc1ccc(C2SC(=N)Nc3c2c(C)nn3C(=O)c2ccccc2O)cc1 (stereo unspecified) : what is it?
3.78 µM (inactive)

Give the measured GI50 of "O=C(NN1C(=O)c2ccccc2C1=O)c1ccccc1Nc1ccccc1C(=O)NN1C(=O)c2ccccc2C1=O" .
> 100 µM (inactive)

Proceed to the following item.
Requested read-out: GI50. Entry: "O=S(=O)(O)c1cccc2cccc(/N=N/c3c(O)ccc4ccccc34)c12"
> 100 µM (inactive)
